# Test system: human PKK mRNA
# assayProcedure: Dose-dependent antisense inhibition of human PKK in HepaRG cells, 0.12-10.00 uM (Example 4)
# Assay type: cell-based
# testContext: Table 32, PKK mRNA, electroporation, ~16 h
pIC50: −log10 of the molar value. Strand notation (5' to 3'): a small letter for the sugar, then the base; units joined by * are phosphorothioate-linked, units joined directly phosphodiester-linked; [ ] holds rarer units or linkages, { } end groups; capitals alone tell only the bases. e = 2'-O-(2-methoxyethyl) (MOE); [5mC] = 5-methylcytosine; d = 2'-deoxy (DNA)
Entries and their measured pIC50 follow.

# substance, studySystem, pIC50
measured = [
    ("530970 (antisense eT*eT*eG*eG*eT*dG*dT*dG*d[5mC]*d[5mC]*dA*d[5mC]*dT*dT*dT*e[5mC]*eA*eG*eA*eT) [compound 530970]", "human PKK mRNA", 6.00),
    ("530992 (eG*eT*e[5mC]*eA*e[5mC]*dA*dT*dT*d[5mC]*dA*dA*dT*dT*d[5mC]*dT*eT*e[5mC]*eT*e[5mC]*e[5mC]; antisense) [compound 530992]", "human PKK mRNA", 6.15),
    ("531002 (eG*eA*eG*e[5mC]*eT*d[5mC]*d[5mC]*d[5mC]*dT*dT*dG*dT*dG*dT*d[5mC]*e[5mC]*e[5mC]*eA*eT*eA; antisense) [compound 531002]", "human PKK mRNA", 6.05),
    ("530959 (antisense eT*e[5mC]*eA*eA*e[5mC]*dA*d[5mC]*dT*dG*d[5mC]*dT*dA*dA*d[5mC]*d[5mC]*eT*eT*eA*eG*eA) [compound 530959]", "human PKK mRNA", 6.05),
    ("530988 (eT*e[5mC]*e[5mC]*eA*eA*dA*dG*dT*d[5mC]*dA*dA*d[5mC]*dT*d[5mC]*d[5mC]*e[5mC]*eG*eG*eG*eT; antisense) [compound 530988]", "human PKK mRNA", 6.05),
    ("531022 (eG*eT*eA*eA*eT*dG*dT*d[5mC]*dT*dG*dA*d[5mC]*dA*dG*dA*eT*eT*eT*eA*eA; antisense) [compound 531022]", "human PKK mRNA", 5.66),
    ("531078 (eA*eG*e[5mC]*eA*eG*d[5mC]*dT*d[5mC]*dT*dG*dA*dG*dT*dG*d[5mC]*eA*e[5mC]*eT*eG*eT; antisense) [compound 531078]", "human PKK mRNA", 5.96),
]

These entries and their values trace back to patent US11840686B2.
